src = patent US20180037631A1

# Measured on: T1, Recombinant human EGFR-Fc (aa 1-645 of the extracellular domain of human EGFR fused to human Fc) (human, UniProt P00533 25-645)
# T1 construct: range 1-645; bought from R&D Systems; also called EGFR645-Fc; EGFR-Fc (HER-1); not shown: human Fc
# Measurement protocol: SPR Biacore, EGFR645-Fc
Metric name: pKd
Scale explanation: pKd corresponds to minus log10 of a concentration expressed in moles per litre.

// solved cases for pKd follow
>  <Binder>
I1-GS10-E5(S62C) pegylated (designed binder, PEG on Cys at position 62 of E5 (position of SEQ ID NO: 1), also called I1-GS10-E5(S62C)(6)) MGVSDVPRDLEVVAATPTSLLISWSARLKVARYYRITYGETGGNSPVQEFTVPKNVYTATISGLKPGVDYTITVYAVTRFRDYQPISINYRTEIEKGSGSGSGSGSGSGSGSGSGSVSDVPRDLEVVAATPTSLLISWWAPVDRYQYYRITYGETGGNSPVQEFTVPRDVYTATICGLKPGVDYTITVYAVTDYKPHADGPHTYHESPISINYRTEHHHHHH

>  <pKd>
8.77

$$$$
>  <Binder>
I1-GSGCGS8-E5 pegylated (designed binder, PEG on the Cys of the GSGCGS8 linker, alternative clone of I1-GS10-E5 pegylated; tail of first monomer EIEK (D to E); also called I1-GSGCGS8-E5(3)) MGVSDVPRDLEVVAATPTSLLISWSARLKVARYYRITYGETGGNSPVQEFTVPKNVYTATISGLKPGVDYTITVYAVTRFRDYQPISINYRTEIEKGSGCGSGSGSGSGSGSGSGSVSDVPRDLEVVAATPTSLLISWWAPVDRYQYYRITYGETGGNSPVQEFTVPRDVYTATISGLKPGVDYTITVYAVTDYKPHADGPHTYHESPISINYRTEHHHHHH

>  <pKd>
8.40

$$$$

Asked: Return the recorded pKd value; entry: I1(S62C)-GS10-E5 pegylated (designed binder, PEG on Cys at position 62 of I1 (position of SEQ ID NO: 1), also called I1(S62C)-GS10-E5(5)) MGVSDVPRDLEVVAATPTSLLISWSARLKVARYYRITYGETGGNSPVQEFTVPKNVYTATICGLKPGVDYTITVYAVTRFRDYQPISINYRTEIEKGSGSGSGSGSGSGSGSGSGSVSDVPRDLEVVAATPTSLLISWWAPVDRYQYYRITYGETGGNSPVQEFTVPRDVYTATISGLKPGVDYTITVYAVTDYKPHADGPHTYHESPISINYRTEHHHHHH
Given back: 8.06
